target: PIK3CG (human) (UniProt P48736); experiment: Assessment of PIK3CG Kinase Activity
Sequence (P48736 whole entry, looked up): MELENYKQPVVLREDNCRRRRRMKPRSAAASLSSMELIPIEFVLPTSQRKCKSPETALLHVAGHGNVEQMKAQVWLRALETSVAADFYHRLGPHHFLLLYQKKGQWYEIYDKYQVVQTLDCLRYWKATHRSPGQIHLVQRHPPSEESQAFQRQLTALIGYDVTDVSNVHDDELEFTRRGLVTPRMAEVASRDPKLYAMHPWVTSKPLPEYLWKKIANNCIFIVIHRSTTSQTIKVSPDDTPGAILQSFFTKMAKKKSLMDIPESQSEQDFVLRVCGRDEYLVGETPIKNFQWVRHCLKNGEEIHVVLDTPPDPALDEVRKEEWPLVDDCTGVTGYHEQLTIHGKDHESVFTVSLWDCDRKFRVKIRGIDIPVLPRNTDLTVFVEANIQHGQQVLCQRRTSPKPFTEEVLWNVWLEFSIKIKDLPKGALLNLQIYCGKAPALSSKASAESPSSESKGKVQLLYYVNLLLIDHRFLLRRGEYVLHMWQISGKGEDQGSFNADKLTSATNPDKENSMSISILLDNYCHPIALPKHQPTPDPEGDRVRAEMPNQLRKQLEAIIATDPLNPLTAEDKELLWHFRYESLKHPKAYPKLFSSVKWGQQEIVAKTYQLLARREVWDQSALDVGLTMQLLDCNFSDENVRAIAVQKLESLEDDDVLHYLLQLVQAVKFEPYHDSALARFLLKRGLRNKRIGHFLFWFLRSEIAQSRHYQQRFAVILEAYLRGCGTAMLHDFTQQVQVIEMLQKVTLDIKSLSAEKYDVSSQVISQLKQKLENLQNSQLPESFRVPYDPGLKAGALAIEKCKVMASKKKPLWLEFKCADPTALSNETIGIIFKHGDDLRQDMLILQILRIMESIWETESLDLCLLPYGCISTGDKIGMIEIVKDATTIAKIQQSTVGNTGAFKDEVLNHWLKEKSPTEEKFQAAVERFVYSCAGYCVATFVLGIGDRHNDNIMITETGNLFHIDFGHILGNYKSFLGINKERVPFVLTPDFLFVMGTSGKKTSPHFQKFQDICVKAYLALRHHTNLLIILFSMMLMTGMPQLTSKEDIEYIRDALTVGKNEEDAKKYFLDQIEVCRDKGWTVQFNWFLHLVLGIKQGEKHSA
Parameter: pIC50. Scope: all listed entries.
// pIC50 is dimensionless: -log10 of concentration (M)

Please review the entries below; each comes with its answer.
O=C(Nc1ccncc1)Nc1ccc(-c2nc(N3CC4CCC(C3)O4)c3cnn([C@H]4CC[C@]5(CCCO5)CC4)c3n2)cc1 | 5.65
O=C(Nc1ccc(-c2nc(N3CC4CCC(C3)O4)c3sccc3n2)cc1)NC1CC1 | 5.00
CC(=O)Nc1ccc(NC(=O)Nc2ccc(-c3nc(N4CC5CCC(C4)O5)c4cnn(C)c4n3)cc2)cc1 | 5.56
CN1CCN(c2ccc(NC(=O)Nc3ccc(-c4nc(N5CC6CCC(C5)O6)c5cnn([C@H]6CC[C@]7(CCCO7)CC6)c5n4)cc3)cc2)CC1 | 5.84
CCn1ncc2c(N3CC4CCC(C3)O4)nc(-c3ccc(NC(=O)NC(=O)CNCCN(C)C)cc3)nc21 | 6.31

Task: Request the reported pIC50 associated with CCn1ncc2c(N3CC4CCC(C3)O4)nc(-c3ccc(NC(=O)NC(=O)CCNCCN(C)C)cc3)nc21
Output: 5.09

Task: Another: O=C(Nc1ccc(-c2nc(N3CC4CCC(C3)O4)c3cnn([C@H]4CC[C@]5(CCCO5)CC4)c3n2)cc1)Nc1ccc(N2CCNCC2)cc1
Output: 5.70

Task: What about this compound? COC1CCC(n2ncc3c(N4CC5CCC(C4)O5)nc(-c4ccc(NC(=O)Nc5ccncc5)cc4)nc32)CC1 (stereo unspecified)
Output: 6.08

Task: Now the compound O=C(Nc1ccc(-c2nc(N3CC4CCC(C3)O4)c3cnn([C@H]4CC[C@]5(CCCO5)CC4)c3n2)cc1)OCCO
Output: 5.69

Task: Then this compound: O=C(NCCO)Nc1ccc(-c2nc(N3CC4CCC(C3)O4)c3sccc3n2)cc1
Output: 5.00

Task: // query: CN(C)CC(=O)Nc1ccc(NC(=O)Nc2ccc(-c3nc(N4CC5CCC(C4)O5)c4cnn(C)c4n3)cc2)cc1
Output: 5.85

* * *

molecular target: PIK3CA (human); test: Assessment of PIK3CA Kinase Activity
In this section we review reported IC50 values for a set of compounds.
Form entry: value (nM) — number only.

CC(=O)Nc1ccc(NC(=O)Nc2ccc(-c3nc(N4CC5CCC(C4)O5)c4cnn(C)c4n3)cc2)cc1 | 1050
CN(C)CC(=O)Nc1ccc(NC(=O)Nc2ccc(-c3nc(N4CC5CCC(C4)O5)c4cnn(C)c4n3)cc2)cc1 | 346

Task: Could you share which IC50 value was measured for CCn1ncc2c(N3CC4CCC(C3)O4)nc(-c3ccc(NC(=O)NC(=O)CNCCN(C)C)cc3)nc21 ?
Output: 311

Task: And what about the compound CCn1ncc2c(N3CC4CCC(C3)O4)nc(-c3ccc(NC(=O)NC(=O)CCNCCN(C)C)cc3)nc21 ?
Output: 1830
